Assay method text: Feces levels of TPPU and metabolites after single oral dose in rats
Assay type: in vivo
Test settings: male, Sprague Dawley, feces; 48h post dose; rat; single oral dose 10 mg/kg TPPU; n = 3
Rule: concentration at 48 h under 6 ng/mL gives 0, otherwise 1.

Determine whether measured concentration at 48 h meets or exceeds 6 ng/mL for O=C(Nc1ccc(OC(F)(F)F)cc1)NC1CCN(C(=O)CCO)CC1
0

Now this one: CC(O)C(=O)N1CCC(NC(=O)Nc2ccc(OC(F)(F)F)cc2)CC1 (centres unmarked)
1

Please do the same for O=C(O)CC(=O)N1CCC(NC(=O)Nc2ccc(OC(F)(F)F)cc2)CC1 as well.
1

Now consider O=C(Nc1ccc(OC(F)(F)F)cc1)NC1CCNCC1 and answer again.
0

Next compound up: CCC(=O)N1CCC(NC(=O)Nc2ccc(OC(F)(F)F)cc2)CC1
1

###

Assay method text: Urine levels of TPPU and metabolites after single oral dose in rats
Type: in vivo
Test settings: male, Sprague Dawley, 72h post dose, rat, single oral dose 10 mg/kg TPPU, n = 3
Answer each item with its documented concentration at 72 h.
Give a bare numeral; the unit ng/mL is implied.

Record request: concentration at 72 h value, item O=C(Nc1ccc(OC(F)(F)F)cc1)NC1CCN(C(=O)CCO)CC1 [Compound M2]
61

Quick one: O=C(O)CC(=O)N1CCC(NC(=O)Nc2ccc(OC(F)(F)F)cc2)CC1 [Compound M4]
1.7

Would you mind doing O=C(Nc1ccc(OC(F)(F)F)cc1)NC1CCNCC1 [Compound M3] as well?
44

Also CCC(=O)N1CCC(NC(=O)Nc2ccc(OC(F)(F)F)cc2)CC1 [TPPU] , if possible.
1.1

Then this compound: CC(O)C(=O)N1CCC(NC(=O)Nc2ccc(OC(F)(F)F)cc2)CC1 (centres unmarked) [Compound M1]
2.1

###

Assay method text: Urine levels of TPPU and metabolites after single oral dose in rats
Type: in vivo
Test settings: male, Sprague Dawley, 12h post dose, rat, single oral dose 10 mg/kg TPPU, n = 3
Hi there, I'd appreciate the recorded concentration at 12 h for every entry that follows.
Form entry: value (ng/mL) — number only.

Param item = O=C(O)CC(=O)N1CCC(NC(=O)Nc2ccc(OC(F)(F)F)cc2)CC1 ; retrieve measured concentration at 12 h.
1.1

Please answer likewise for CCC(=O)N1CCC(NC(=O)Nc2ccc(OC(F)(F)F)cc2)CC1
5.1

Can you check O=C(Nc1ccc(OC(F)(F)F)cc1)NC1CCN(C(=O)CCO)CC1 next?
3.2

Now consider O=C(Nc1ccc(OC(F)(F)F)cc1)NC1CCNCC1 and answer again.
2.9

Same question for CC(O)C(=O)N1CCC(NC(=O)Nc2ccc(OC(F)(F)F)cc2)CC1 (centres unmarked) please.
1.2

###

Assay method text: Urine levels of TPPU and metabolites after single oral dose in rats
Format: in vivo
Test settings: male, Sprague Dawley, 24h post dose, rat, single oral dose 10 mg/kg TPPU, n = 3
Note to self: concentration at 24 h under 6 ng/mL means True, ties and anything higher get False.

Lab note: concentration at 24 h threshold 6 ng/mL. Does this molecule come in strictly under it? CCC(=O)N1CCC(NC(=O)Nc2ccc(OC(F)(F)F)cc2)CC1 [TPPU]
True

Repeat for the following molecule: O=C(Nc1ccc(OC(F)(F)F)cc1)NC1CCN(C(=O)CCO)CC1 [Compound M2]
False

One more molecule: O=C(O)CC(=O)N1CCC(NC(=O)Nc2ccc(OC(F)(F)F)cc2)CC1 [Compound M4]
True

Also check O=C(Nc1ccc(OC(F)(F)F)cc1)NC1CCNCC1 [Compound M3]
True

// repeat for CC(O)C(=O)N1CCC(NC(=O)Nc2ccc(OC(F)(F)F)cc2)CC1 (centres unmarked) [Compound M1] and report
True
